Reported values of CC50 at 24 h for individual entries
# measurement-notes: Cytotoxicity against human THP1 cells assessed as induction of cell death after 24 hrs by propidium iodide staining based flow cytometry
# condition-description: THP-1 cells, read-out: LC50

- molecule: "CC(=O)N[C@@H](CCCNC(=N)N)C(=O)N[C@@H](CCCNC(=N)N)C(=O)N[C@@H](CCCNC(=N)N)C(=O)N[C@@H](CCCNC(=N)N)C(=O)N[C@@H](CCCNC(=N)N)C(=O)N[C@@H](CCCNC(=N)N)C(=O)N[C@@H](CCCNC(=N)N)C(=O)N[C@@H](CCCNC(=N)N)C(=O)N[C@@H](CCCNC(=N)N)C(N)=O"
  value-kind: "CC50 at 24 h"
  result: "> 25 µM"
- molecule: "CC(=O)NCC(=O)N[C@@H](CCCNC(=N)N)C(=O)N[C@@H](CCCCN)C(=O)N[C@@H](CCCCN)C(=O)N[C@@H](CCCNC(=N)N)C(=O)N[C@@H](CCCNC(=N)N)C(=O)N[C@@H](CCC(N)=O)C(=O)N[C@@H](CCCNC(=N)N)C(=O)N[C@@H](CCCNC(=N)N)C(=O)N[C@@H](CCCNC(=N)N)C(=O)N1CCC[C@H]1C(=O)N1CCC[C@H]1C(=O)N[C@@H](CCC(N)=O)C(N)=O"
  value-kind: "CC50 at 24 h"
  result: "> 25 µM"
- molecule: "CCCCCCCCCCCCCCCCCCOCC(COP(=O)([O-])OCC[N+](C)(C)C)OC (centres undefined)"
  value-kind: "CC50 at 24 h"
  result: "1 µM"

Note: attention shifts to another entry.
In plain terms, `CCCCCCCCCCCCCCCCOP(=O)([O-])OCC[N+](C)(C)C` has a documented CC50 at 24 h of 19 µM

---

# measured-on: Trypanothione reductase (Leishmania infantum, UniProt A4HSF7)
# Sequence (A4HSF7 whole entry): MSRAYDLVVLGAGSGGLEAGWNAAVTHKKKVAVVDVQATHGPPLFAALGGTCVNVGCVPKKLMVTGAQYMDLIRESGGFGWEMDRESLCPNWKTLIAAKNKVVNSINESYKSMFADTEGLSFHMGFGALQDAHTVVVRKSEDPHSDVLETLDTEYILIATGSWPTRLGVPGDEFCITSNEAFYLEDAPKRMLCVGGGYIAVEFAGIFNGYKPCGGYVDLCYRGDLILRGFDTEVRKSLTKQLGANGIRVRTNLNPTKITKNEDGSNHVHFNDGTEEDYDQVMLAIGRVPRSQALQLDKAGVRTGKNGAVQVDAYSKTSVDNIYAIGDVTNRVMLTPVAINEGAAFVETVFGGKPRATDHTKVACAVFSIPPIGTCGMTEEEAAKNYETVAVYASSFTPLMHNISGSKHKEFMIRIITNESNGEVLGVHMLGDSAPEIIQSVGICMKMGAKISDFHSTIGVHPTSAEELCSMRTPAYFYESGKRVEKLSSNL
# measurement-notes: Inhibition of recombinant Leishmania infantum TryR preincubated for 10 mins followed by T[S]2 substrate addition and measured after 1 hr in presence of NADPH
Reported values of IC50 for individual entries
Give the value, in units of µM, as a plain number.

- compound: "CCCCC(NC(=O)[C@@H]1CCCCNC(=O)CC[C@H](NC(=O)[C@@H](NC(=O)[C@H](CO)NC(=O)[C@H](CCC(N)=O)NC(=O)[C@@H](NC(=O)[C@@H](NC(=O)[C@H](CCCCN)NC(=O)[C@@H]2CCCN2C(C)=O)[C@@H](C)CC)[C@@H](C)CC)C(C)C)C(=O)N[C@@H]([C@@H](C)CC)C(=O)N[C@@H](CO)C(=O)NC(CCCC)C(=O)N1)C(N)=O (stereo partly drawn)"
  IC50 (µM): 27

Note: attention shifts to another entry.
The compound CCCCC(NC(=O)[C@H](CCCCN)NC(=O)C(CCCC)NC(=O)[C@H](CO)NC(=O)[C@@H](NC(=O)CNC(=O)[C@@H](NC(=O)[C@H](CO)NC(=O)[C@H](CCC(N)=O)NC(=O)[C@@H](NC(=O)[C@@H](NC(=O)[C@H](CCCCN)NC(=O)[C@@H]1CCCN1C(C)=O)[C@@H](C)CC)[C@@H](C)CC)C(C)C)[C@@H](C)CC)C(N)=O (stereo partly drawn) on Trypanothione reductase (Leishmania infantum, UniProt A4HSF7): IC50 was 1.2
